Data origin, for the record: patent US9151743B2

molecular target: UniProt:P50579
Sequence (P50579 whole entry, species assumed): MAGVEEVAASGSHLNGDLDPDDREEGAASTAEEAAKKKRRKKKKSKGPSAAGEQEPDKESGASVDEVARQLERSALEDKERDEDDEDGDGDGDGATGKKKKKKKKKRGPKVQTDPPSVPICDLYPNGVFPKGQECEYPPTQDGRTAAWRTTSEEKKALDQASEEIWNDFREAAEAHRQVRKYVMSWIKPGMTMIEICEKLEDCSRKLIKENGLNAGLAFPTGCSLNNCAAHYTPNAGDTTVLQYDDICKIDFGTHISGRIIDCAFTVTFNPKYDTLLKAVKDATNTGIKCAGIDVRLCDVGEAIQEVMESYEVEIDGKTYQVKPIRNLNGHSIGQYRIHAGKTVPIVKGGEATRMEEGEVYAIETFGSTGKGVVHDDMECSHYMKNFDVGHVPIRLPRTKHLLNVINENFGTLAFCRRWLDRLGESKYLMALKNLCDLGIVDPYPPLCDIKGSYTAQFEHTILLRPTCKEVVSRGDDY
endpoint.label: pIC50
Please treat pIC50 as minus the base-10 logarithm of the molar concentration.

Case "CO[C@@H]1[C@H](OC(=O)NC(=O)CCl)CC[C@]2(CO2)[C@H]1[C@@]1(C)O[C@@H]1CC=C(C)C" , UniProt:P50579, pIC50 recorded as 7.85
